Hello, the source for this data is the Kinase Knowledgebase extract (Sharma et al. 2016), in case you need it.

Reported IC50 values, PIK3CA (human) (UniProt P42336).

Incoming: Which IC50 value is on record for Cc1nnc(-c2cc(-c3cccc4[nH]ccc34)cc3[nH]ncc23)o1 ?
Outgoing: > 25.1 µM

Incoming: Now consider CN(C(=O)c1ccccn1)c1cc(-c2cccc3[nH]ccc23)cc2[nH]ncc12 and answer again.
Outgoing: > 25.1 µM

Incoming: What do we get for Cn1nccc1C(=O)Nc1cc(-c2cccc3[nH]ccc23)cc2[nH]ncc12 ?
Outgoing: > 25.1 µM

----------
assayed.system: PIK3CB (Human)
Consider the following compounds; for each one, report its pIC50.
Answer as the number alone; pIC50 is minus log10 of concentration in mol/L.

Incoming: Look up pIC50: CC(C)N1CCN(Cc2cnc(-c3cc(-c4cccc5[nH]ccc45)cc4[nH]ncc34)o2)CC1
Outgoing: 5.80

Incoming: Try Cc1cc2c(-c3cc(NC(=O)c4csc(C)n4)c4cn[nH]c4c3)cccc2[nH]1 next.
Outgoing: 5.50

Incoming: Same question, O=C(Nc1cc(-c2cccc3[nH]ccc23)cc2[nH]ncc12)c1ccccc1 this time
Outgoing: 4.70

Incoming: Also Cc1cnc(-c2cc(-c3cccc4[nH]ccc34)cc3[nH]ncc23)s1 , if possible.
Outgoing: 5.20

Incoming: Further, for O=C(Nc1cc(-c2cccc3[nH]ccc23)cc2[nH]ncc12)c1ccccn1 ?
Outgoing: 5.20

Incoming: Follow-up item: Cn1nccc1C(=O)Nc1cc(-c2cccc3[nH]ccc23)cc2[nH]ncc12
Outgoing: 4.70

Incoming: Queued: Cc1nc(C(=O)Nc2cc(-c3ccc(Cl)c(NS(C)(=O)=O)c3)cc3[nH]ncc23)cs1
Outgoing: 4.80

Incoming: Would you kindly repeat that for Cc1nnc(-c2cc(-c3cccc4[nH]ccc34)cc3[nH]ncc23)o1 ?
Outgoing: 5.50

Incoming: Consider next the compound CC(C)N1CCN(Cc2coc(-c3cc(-c4cccc5[nH]ccc45)cc4[nH]ncc34)n2)CC1 in the same way.
Outgoing: 5.40

----------
assayed.system: PIK3CG (human) (UniProt P48736)
Sequence (P48736 whole entry, looked up): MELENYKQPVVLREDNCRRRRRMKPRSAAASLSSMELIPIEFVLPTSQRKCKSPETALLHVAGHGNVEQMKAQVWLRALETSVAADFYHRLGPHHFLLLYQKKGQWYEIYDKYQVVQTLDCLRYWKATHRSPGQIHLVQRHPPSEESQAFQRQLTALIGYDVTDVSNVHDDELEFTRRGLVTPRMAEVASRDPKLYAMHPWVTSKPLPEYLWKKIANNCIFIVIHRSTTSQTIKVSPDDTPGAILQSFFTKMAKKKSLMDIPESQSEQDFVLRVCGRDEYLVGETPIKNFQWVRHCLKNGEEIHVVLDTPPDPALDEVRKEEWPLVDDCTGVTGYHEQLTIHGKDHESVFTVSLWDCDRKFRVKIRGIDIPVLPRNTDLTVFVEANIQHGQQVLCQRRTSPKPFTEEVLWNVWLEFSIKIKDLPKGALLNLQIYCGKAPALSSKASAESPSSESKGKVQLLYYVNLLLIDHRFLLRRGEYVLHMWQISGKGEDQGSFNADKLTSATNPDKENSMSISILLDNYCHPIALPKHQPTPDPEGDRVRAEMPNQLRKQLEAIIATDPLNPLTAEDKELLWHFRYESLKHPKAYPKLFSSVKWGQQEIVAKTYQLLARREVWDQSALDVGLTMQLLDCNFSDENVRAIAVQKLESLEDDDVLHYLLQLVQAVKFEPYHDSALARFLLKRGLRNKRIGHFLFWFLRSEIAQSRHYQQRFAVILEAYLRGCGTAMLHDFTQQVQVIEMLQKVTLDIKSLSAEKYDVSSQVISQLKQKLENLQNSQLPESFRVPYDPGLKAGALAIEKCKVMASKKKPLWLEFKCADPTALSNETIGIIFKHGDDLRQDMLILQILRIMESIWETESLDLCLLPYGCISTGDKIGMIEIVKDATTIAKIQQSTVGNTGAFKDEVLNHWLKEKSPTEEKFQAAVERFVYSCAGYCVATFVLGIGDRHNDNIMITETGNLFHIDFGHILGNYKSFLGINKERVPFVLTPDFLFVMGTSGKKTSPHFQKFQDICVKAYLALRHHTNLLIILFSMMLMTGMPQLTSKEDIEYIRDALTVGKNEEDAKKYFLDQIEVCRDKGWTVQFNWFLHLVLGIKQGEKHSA
So basically, if IC50 comes in under 3 µM it's 1, and if it's 3 µM or more it's -1.

Incoming: Field: below-cutoff. Rule: recorded IC50 strictly less than 3 µM. Subject: O=C(Nc1cc(-c2cccc3[nH]ccc23)cc2[nH]ncc12)c1cscn1
Outgoing: -1

Incoming: One more compound: Cc1ccc(-c2cc(-c3cccc4[nH]ccc34)cc3[nH]ncc23)s1
Outgoing: -1

Incoming: Likewise for Cc1ccc(-c2cc(-c3cccc4[nH]ccc34)cc3[nH]ncc23)o1 ?
Outgoing: 1

Incoming: Ok, now C[C@@H]1CN(Cc2cnc(-c3cc(-c4cccc5[nH]ccc45)cc4[nH]ncc34)o2)C[C@H](C)O1
Outgoing: 1

Incoming: Could you do the same for Cc1nc(C(=O)Nc2cc(-c3cncc(NS(C)(=O)=O)c3)cc3[nH]ncc23)cs1 , please?
Outgoing: 1

Incoming: Now the same for Cc1nc(C(=O)Nc2cc(-c3cccc4[nH]cnc34)cc3[nH]ncc23)cs1
Outgoing: -1

Incoming: Can you handle CC(C)N1CCN(Cc2cnc(-c3cc(-c4cccc5[nH]ccc45)cc4[nH]ncc34)o2)CC1 next?
Outgoing: -1

Incoming: Do the same for C[C@@H]1CN(Cc2nc(C(=O)Nc3cc(-c4cccc5[nH]ccc45)cc4[nH]ncc34)cs2)C[C@H](C)O1 please
Outgoing: 1

Incoming: Param item: Cc1nc(C(=O)Nc2cc(-c3cnc(Cl)c(N(C)S(=O)(=O)c4ccccc4)c3)cc3[nH]ncc23)cs1
Outgoing: -1

Incoming: Likewise for Cc1nc(C(=O)Nc2cc(-c3ccnc4[nH]ccc34)cc3[nH]ncc23)cs1 ?
Outgoing: 1
